Assay: Phase 1 study pharmacokinetics in patients with advanced malignancies
Conditions: human, plasma, intravenous, alpha half-life, mean, doses 4.4-190 mg/m^2
Measurement label: half-life (min)
Field format: number, assumed min, no unit text.

Quick note, half-life for "Cc1cc(C)c(/C=C2\C(=O)Nc3ccccc32)[nH]1" landed at 5.8

----------
Test: Phase 1 study pharmacokinetics in patients with advanced malignancies
Settings: human, plasma, intravenous, beta half-life or elimination phase, range, doses 4.4-190 mg/m^2
Measurement label: half-life

Quick note, half-life for "Cc1cc(C)c(/C=C2\C(=O)Nc3ccccc32)[nH]1" landed at 0.167 to 1.85 h

----------
Assay: Phase 1 study pharmacokinetics in patients with advanced malignancies
Conditions: human, plasma, intravenous, half-life in humans, doses 4.4-190 mg/m^2, preliminary
Measurement label: half-life

Quick note, half-life for "Cc1cc(C)c(/C=C2\C(=O)Nc3ccccc32)[nH]1" landed at ~1 h
